Test: Quantitative High-Throughput drug screen in 47 multiple myeloma cell lines against the NCATS MIPE library collection: MM1R_ATCC cell viability assay (AID 1918981); note: potency is the fitted concentration of half-maximal effect; nearly all actives have a fitted effect of over 35% in size
Details: MM1R multiple myeloma cells, CellTiter-Glo viability, 48 h; series mostly up to 45.8 µM
Records with an inconclusive call do not appear. Activity calls are given as the source filed them. Calls come from the whole dose curve; as a rule, active = well fitted cell-killing curve with a large enough effect; inconclusive = small, poorly fitted or top-dose-only effect, or effect the other way; inactive = no such curve, though single readings can be large or run the other way.
METRIC_NAME: Potency

INSERT INTO results (molecule, metric_name, result) VALUES
  ('COc1cccc(-c2ccc(NC(=O)C3=C(C(=O)O)CCC3)c(F)c2)c1', 'Potency', '23.5 µM (active)'),
  ('CCn1nnc2c(N3CCOCC3)nc(-c3ccc(NC(=O)Nc4ccc(C(=O)N5CCN(C)CC5)cc4)cc3)nc21', 'Potency', '0.0469 µM (active)'),
  ('CC=C1NC(=O)[C@H]2CSSCCC=C[C@H](CC(=O)N[C@H](C(C)C)C(=O)N2)OC(=O)[C@H](C(C)C)NC1=O', 'Potency', '0.0166 µM (active)'),
  ('Nc1cc(C(F)(F)F)c(-c2cc(N3CCOCC3)nc(N3CCOCC3)n2)cn1', 'Potency', '1.18 µM (active)'),
  ('C=C1C(=CC=C2CCC[C@]3(C)[C@@H]([C@H](C)C=C[C@H](C)C(C)C)CC[C@@H]23)C[C@@H](O)C[C@@H]1O', 'Potency', '1.66 µM (active)');

Consider the additional molecule presented here.
Exercise: // Potency lookup, key: `CC(=O)Nc1nc(C)c(-c2ccc(Cl)c(S(=O)(=O)NCCO)c2)s1`
Key: 7.43 µM (active)
